From: patent US20240246950A1

Catalogue of IC50 values
# ASSAY SYSTEM: CDK2/CycE1 (Homo sapiens)
# ASSAY OVERVIEW: In vitro kinase Caliper assay CDK2/CycE1
# Format: biochemical
# MEASUREMENT CONTEXT: enzyme 3 nM, 28° C. 30 min, read-out: CDK2 cyclinE1 activity assay: IC50

The examples below pair each entry with its known result.
CC(C)NC(=O)O[C@@H]1CC[C@H](c2cc(Nc3ccc4c(=O)[nH]n(C)c4c3)n[nH]2)C1	< 50 nM
CC(C)NC(=O)O[C@@H]1CC[C@H](c2cc(Nc3ccc4c(c3)CNS4(=O)=O)n[nH]2)C1	< 50 nM

Could you now consider this next molecule?
Short answer for `CC(C)NC(=O)O[C@@H]1CC[C@H](c2cc(Nc3ccc4c(c3)CCNS4(=O)=O)n[nH]2)C1` : IC50 was < 50 nM

====

# ASSAY SYSTEM: GSK3β (Homo sapiens, UniProt P49841)
# Sequence (P49841 whole entry, species assumed): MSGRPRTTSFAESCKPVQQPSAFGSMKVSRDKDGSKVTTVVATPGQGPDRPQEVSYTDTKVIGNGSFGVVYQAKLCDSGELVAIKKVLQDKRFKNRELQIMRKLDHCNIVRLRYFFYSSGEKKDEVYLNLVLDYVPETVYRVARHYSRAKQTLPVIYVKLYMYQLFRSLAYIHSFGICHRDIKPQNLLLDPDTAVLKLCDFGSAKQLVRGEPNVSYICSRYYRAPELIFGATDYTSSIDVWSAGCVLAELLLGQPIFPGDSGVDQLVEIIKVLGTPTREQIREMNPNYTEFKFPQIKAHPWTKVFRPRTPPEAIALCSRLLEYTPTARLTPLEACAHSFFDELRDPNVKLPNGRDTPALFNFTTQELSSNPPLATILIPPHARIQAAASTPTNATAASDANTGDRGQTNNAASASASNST
# ASSAY OVERVIEW: In vitro kinase TR-FRET assay GSK3β
# Type: biochemical
# MEASUREMENT CONTEXT: enzyme 0.6 nM, ATP 7.6 μM
VALUE TYPE: IC50

The examples below pair each entry with its known result.
CC(C)NC(=O)O[C@@H]1CC[C@H](c2cc(Nc3ccc4c(c3)C(=O)NC4=O)n[nH]2)C1 [Example 4]	50 to 500 nM
CC(C)NC(=O)O[C@@H]1CC[C@H](c2cc(Nc3ccc4c(c3)C(C#N)CC4)n[nH]2)C1 (stereo partly drawn) [Example 31]	50 to 500 nM
CC(C)NC(=O)O[C@@H]1CC[C@H](c2cc(Nc3cccc4c3S(=O)(=O)CC4)n[nH]2)C1 [Example 35]	> 1000 nM
Cc1c(Nc2ccc3c(c2)CS(=O)(=O)C3)n[nH]c1[C@H]1CC[C@@H](OC(=O)NC(C)C)C1 [Example 43]	> 1000 nM
CC(C)NC(=O)O[C@@H]1CC[C@H](c2cc(Nc3cccc4c3CCN(C)S4(=O)=O)[nH]n2)C1 [Example 56]	50 to 500 nM
CC(C)NC(=O)O[C@@H]1CC[C@H](c2cc(Nc3cccc4c3CCS(=O)(=O)N4)n[nH]2)C1 [Example 53]	> 1000 nM
CC(C)NC(=O)O[C@@H]1CC[C@H](c2cc(Nc3ccc4c(c3)C(=O)NC4)n[nH]2)C1 [Example 20]	> 1000 nM
CC(C)NC(=O)O[C@@H]1CC[C@H](c2cc(Nc3cccc4c3CNS4(=O)=O)n[nH]2)C1 [Example 46]	50 to 500 nM
CC(C)NC(=O)O[C@@H]1CC[C@H](c2cc(Nc3cc4c(cc3F)S(=O)(=O)CC4)n[nH]2)C1 [Example 54]	> 1000 nM
CC(C)NC(=O)O[C@@H]1CC[C@H](c2cc(Nc3ccc4c(c3)CCC4=O)n[nH]2)C1 [Example 25]	50 to 500 nM

Considering COC1CS(=O)(=O)c2ccc(Nc3cc([C@H]4CC[C@@H](OC(=O)NC(C)C)C4)n[nH]3)cc21 (stereo partly drawn) [Example 15] , its IC50 with GSK3β (Homo sapiens, UniProt P49841) was recorded as 50 to 500 nM

Considering CC(C)NC(=O)O[C@H]1CC[C@@H](c2cc(Nc3nccc4c3CCS4(=O)=O)n[nH]2)CC1 [Example 69] , its IC50 with GSK3β (Homo sapiens, UniProt P49841) was recorded as > 1000 nM
